# test-description: ATG_ISRE_CIS: Attagene CIS-FACTORIAL HepG2 Assay for human Interferon Regulatory Factor 1 (IRF1) binding to an Interferon-Stimulated Response Element (ISRE) (AID 2282948)
# test-conditions: HepG2 ISRE cis-reporter (Attagene), mRNA transcription readout; actives raise or lower the signal
Active and inactive are the calls of the source. The calls were made as follows: active = hit-call score of the fitted dose curve at least 0.9, where 1 is the maximum; inactive = score below 0.9.
Outcomes you can answer with include only these: active, inactive

stdin: Record lookup: outcome of this test for `c1ccc2c(c1)Oc1ccccc1O2` ?
stdout: inactive

stdin: Record lookup: outcome of this test for `N#Cc1ccccc1N` ?
stdout: inactive

stdin: Record lookup: outcome of this test for `Cc1cccc(C)c1NC(=O)CN1CCCC1=O` ?
stdout: inactive

stdin: Record lookup: outcome of this test for `Cc1ccc2nc3sc(=O)sc3nc2c1` ?
stdout: inactive

stdin: Record lookup: outcome of this test for `C#CCO` ?
stdout: inactive

stdin: Record lookup: outcome of this test for `Cc1cc(C(F)(C(F)(F)F)C(F)(F)F)ccc1NC(=O)c1cccc(I)c1C(=O)NC(C)(C)CS(C)(=O)=O` ?
stdout: inactive

stdin: Record lookup: outcome of this test for `Cc1cc(C(C)(C)c2ccc(O)c(C)c2)ccc1O` ?
stdout: active
